# experimental_target: human M4 receptor (Homo sapiens (Human), UniProt P08173)
# Sequence (P08173 whole entry): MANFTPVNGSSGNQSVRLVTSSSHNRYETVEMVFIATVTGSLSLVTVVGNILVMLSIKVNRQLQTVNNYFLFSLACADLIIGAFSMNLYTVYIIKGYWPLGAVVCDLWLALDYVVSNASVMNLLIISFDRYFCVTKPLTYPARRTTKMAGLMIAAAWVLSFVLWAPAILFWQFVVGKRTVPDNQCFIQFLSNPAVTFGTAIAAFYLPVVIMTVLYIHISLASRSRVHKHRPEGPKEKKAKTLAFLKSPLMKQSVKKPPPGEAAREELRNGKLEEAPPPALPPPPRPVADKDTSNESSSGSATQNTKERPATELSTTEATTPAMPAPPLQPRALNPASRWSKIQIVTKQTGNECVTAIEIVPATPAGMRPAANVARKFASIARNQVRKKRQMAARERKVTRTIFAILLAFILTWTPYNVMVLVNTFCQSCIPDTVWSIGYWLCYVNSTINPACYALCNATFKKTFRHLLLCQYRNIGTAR
# protocol: Radioligand (tritiated N-methylscopolamine) binding assay, M4
# condition: Ki against the M4 receptor; membranes from CHO cells expressing human M4; tritiated N-methylscopolamine 1.5 nM; read-out: Ki
pKi: −log10 of the molar value.
outcome_measure: pKi

smiles_representation: Cc1c(C(=O)NCCC2CCN(Cc3ccccc3)CC2)cnc2cc(-c3cccc(C(F)(F)F)c3)nn12
pKi: > 8.00

Short answer for C[C@@H]1CN(c2ncc(C(F)(F)F)cn2)CCN1C(=O)NCCC1CCN(Cc2ccccc2C#N)CC1 : pKi was 6.00 to 7.00

Short answer for C[C@@H]1CN(c2cc(F)c(F)c(F)c2)CCN1C(=O)NCCC1CCN(Cc2cccc(F)c2F)CC1 : pKi was 7.00 to 8.00

Short answer for O=C(NCCC1CCN(Cc2ccccc2)CC1)C1CCN(c2ccc(Cl)nc2)CC1 : pKi was 6.00 to 7.00

Short answer for CO[C@H](CNC(=O)N1CCN(c2ccc(F)c(C#N)c2)C[C@H]1C)C1CCN(Cc2ccccc2)CC1 : pKi was 7.00 to 8.00

Short answer for O=C(NCCC1CCN(Cc2ccccc2)CC1)[C@@H]1CCN(c2cccc(OC(F)(F)F)c2)C1 : pKi was 6.00 to 7.00

Short answer for Cc1nc(-c2ccc(Cl)cc2)sc1C(=O)NCCC1CCN(Cc2ccccc2)CC1 : pKi was 6.00 to 7.00

* * *

# experimental_target: human M1 receptor (Homo sapiens (Human), UniProt P11229)
# Sequence (P11229 whole entry): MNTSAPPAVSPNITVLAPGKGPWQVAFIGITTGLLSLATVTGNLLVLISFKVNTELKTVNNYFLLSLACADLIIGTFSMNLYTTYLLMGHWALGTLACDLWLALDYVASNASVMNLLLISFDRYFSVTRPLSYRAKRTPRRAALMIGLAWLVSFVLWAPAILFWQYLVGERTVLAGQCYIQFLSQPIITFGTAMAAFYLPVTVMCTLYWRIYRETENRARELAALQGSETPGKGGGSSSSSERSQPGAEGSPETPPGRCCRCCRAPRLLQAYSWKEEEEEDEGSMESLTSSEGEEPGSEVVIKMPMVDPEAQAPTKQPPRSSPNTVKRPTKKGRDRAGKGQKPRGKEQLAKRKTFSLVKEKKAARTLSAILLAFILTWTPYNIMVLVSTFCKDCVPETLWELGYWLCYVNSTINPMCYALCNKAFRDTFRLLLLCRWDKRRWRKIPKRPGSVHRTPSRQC
# protocol: Radioligand (tritiated N-methylscopolamine) binding assay, M1
pKi: −log10 of the molar value.
outcome_measure: pKi

Observed pKi, human M1 receptor (Homo sapiens (Human), UniProt P11229), C[C@@H]1CN(c2ccc(C#N)c(C(F)(F)F)c2)CCN1C(=O)NCCC1CCN(Cc2ccccc2)CC1 : 7.00 to 8.00

* * *

# experimental_target: human M1 receptor (Homo sapiens (Human), UniProt P11229)
# protocol: Radioligand (tritiated N-methylscopolamine) binding assay, M1
# condition: CHO cell membranes expressing human M1; 1.5 nM tritiated N-methylscopolamine; 90 min, 37° C.; read-out: Ki against M1 receptor (Table 21, M1)
pKi: −log10 of the molar value.
# pKi values compiled below

Short answer for O=C(NCCC1CCN(Cc2ccccc2)CC1)C1CCN(c2ccc(OC(F)(F)F)cc2)CC1 [9-1] : pKi was < 6.00

Short answer for C[C@@H]1CN(c2cccc(C#N)c2)CCN1C(=O)NCCC1CCN(Cc2ccccc2)CC1 [4-68] : pKi was 6.00 to 7.00

Short answer for C[C@@H]1CN(c2ccc(Cl)c(F)c2)CCN1C(=O)NCCC1CCN(Cc2ccccc2)CC1 [22-14] : pKi was 6.00 to 7.00

Short answer for O=C(NCCC1CCN(Cc2ccccc2)CC1)N1CCN(c2ccc(C(F)(F)F)cc2)CC1 [4-76] : pKi was < 6.00

* * *

human M3 receptor (Homo sapiens (Human), UniProt P20309): reported Ki for various compounds.
Sequence (P20309 whole entry): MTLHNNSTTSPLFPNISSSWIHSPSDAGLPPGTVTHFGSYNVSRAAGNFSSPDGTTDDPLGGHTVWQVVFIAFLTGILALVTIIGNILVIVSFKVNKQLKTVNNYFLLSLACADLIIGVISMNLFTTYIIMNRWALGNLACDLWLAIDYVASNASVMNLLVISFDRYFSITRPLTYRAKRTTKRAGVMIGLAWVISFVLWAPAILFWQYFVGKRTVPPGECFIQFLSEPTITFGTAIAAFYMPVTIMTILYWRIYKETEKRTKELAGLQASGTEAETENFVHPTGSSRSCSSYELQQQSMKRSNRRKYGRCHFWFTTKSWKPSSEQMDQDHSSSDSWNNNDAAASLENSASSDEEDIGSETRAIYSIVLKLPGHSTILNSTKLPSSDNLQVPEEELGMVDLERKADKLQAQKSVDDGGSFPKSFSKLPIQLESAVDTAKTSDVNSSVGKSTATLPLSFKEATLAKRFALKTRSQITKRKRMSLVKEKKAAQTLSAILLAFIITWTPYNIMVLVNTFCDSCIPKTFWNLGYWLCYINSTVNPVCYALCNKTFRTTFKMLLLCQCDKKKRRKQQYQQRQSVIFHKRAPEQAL

Short answer for C[C@@H]1CN(c2ccc(C(F)(F)F)cc2F)CCN1C(=O)NCCC1CCN(Cc2ccccc2)CC1 [4-73] : Ki was 0.1 to 1 µM

Short answer for C[C@H]1CN(c2ccc(C(F)(F)F)cn2)CCC1C(=O)NCCC1CCN(Cc2ccccc2)CC1 (stereo partly shown) [10-80] : Ki was 0.1 to 1 µM

Short answer for C[C@@H]1CN(c2ccc(C#N)c(F)c2)CCN1C(=O)NCCC1CCN(Cc2ccccc2)CC1 [22-15] : Ki was > 1 µM

Short answer for C[C@@H]1CN(c2cc(F)c(F)c(F)c2)CCN1C(=O)NCCC1CCN(Cc2ccc(F)cc2)CC1 [6-4] : Ki was > 1 µM

Short answer for COc1nc(N2C[C@@H](C)N(C(=O)NCCC3CCN(Cc4ccccc4)CC3)[C@@H](C)C2)ncc1C#N [5-17] : Ki was 0.1 to 1 µM

Short answer for C[C@@H]1CN(c2ccc(C(F)(F)F)cn2)CCN1C(=O)NCCC1CCN(Cc2ccccc2)CC1 [3-14] : Ki was > 1 µM

Short answer for C[C@@H]1CN(c2cc(F)c(F)c(F)c2)CCN1C(=O)NCCC1(O)CCN(Cc2ccccc2)CC1 [7-1] : Ki was > 1 µM

Short answer for O=C(NCCC1CCN(Cc2ccccc2)CC1)C1CCN(c2ccc3c(c2)OC(F)(F)O3)CC1 [10-5] : Ki was > 1 µM

Short answer for C[C@@H]1CN(c2ncc(C#N)cn2)C[C@H](C)N1C(=O)NCCC1CCN(Cc2ccc(O)cc2)CC1 [6-42] : Ki was 0.1 to 1 µM

Short answer for C[C@@H]1CN(c2ccc(OC(F)(F)F)nc2)CCN1C(=O)NCCC1CCN(Cc2ccccc2)CC1 [3-8] : Ki was 0.1 to 1 µM

Short answer for O=C(NCCC1CCN(Cc2ccccc2)CC1)N1CCN(c2ncc(C(F)(F)F)cn2)CC1 [5-24] : Ki was > 1 µM

Short answer for C[C@@H]1CN(c2ncc(C(F)(F)F)cn2)CCN1C(=O)NCCC1CCN(Cc2cccc(C#N)c2)CC1 [6-40] : Ki was 0.1 to 1 µM

Short answer for C[C@@H]1CN(C(=O)NCCC2CCN(Cc3ccccc3)CC2)CCN1c1ccc(OC(F)(F)F)cc1 [4-18] : Ki was > 1 µM

Short answer for C[C@@H]1CN(c2ncc(C#N)cn2)C[C@H](C)N1C(=O)NCCC1CCN(Cc2ccccc2)CC1 [21-2] : Ki was > 1 µM

Short answer for C[C@H]1CN(c2ccc(F)c(C#N)c2)CCN1C(=O)NCCC1CCN(Cc2ccccc2)CC1 [4-20] : Ki was > 1 µM

Short answer for C[C@@H]1CN(c2nc(Cl)cc(C#N)n2)C[C@H](C)N1C(=O)NCCC1CCN(Cc2ccccc2)CC1 [4-11] : Ki was > 1 µM

* * *

# experimental_target: human M4 receptor (Homo sapiens (Human), UniProt P08173)
# protocol: Radioligand (tritiated N-methylscopolamine) binding assay, M4
# Description: Binding affinity (Ki) of compounds was measured by inhibition of radioligand binding to membranes from CHO cells expressing human M1, M2, M3, M4 and M5 receptors. […] Harvesting and radioactivity counting was conducted as previously described (see, e.g., Hoare et al., Mol. Pharmacol. 2003 63(3):751-65); Erratum at Mol. Pharmacol. 2005 July; 68(1): 260).
pKi: −log10 of the molar value.
outcome_measure: pKi

Short answer for N#CC1(c2ccccc2)CCN(C(=O)NCCC2CCN(Cc3ccccc3)CC2)CC1 [8-33] : pKi was 6.00 to 7.00

* * *

# experimental_target: human M4 receptor (Homo sapiens (Human), UniProt P08173)
# protocol: Radioligand (tritiated N-methylscopolamine) binding assay, M4
# condition: Ki against the M4 receptor; membranes from CHO cells expressing human M4; tritiated N-methylscopolamine 1.5 nM; read-out: Ki
# Ki values compiled below

molecule: C[C@@H]1CN(c2ncc(C#N)cn2)C[C@H](C)N1C(=O)NCCC1CCN(CC2CCCS(=O)(=O)C2)CC1 (stereo partly drawn)
outcome_measure: Ki
endpoint_result: 100 to 1000 nM
//
molecule: C[C@@H]1CN(c2ncc(C#N)cn2)C[C@H](C)N1C(=O)NCCC1CCN(Cc2ccccc2)CC1 [21-2]
outcome_measure: Ki
endpoint_result: < 10 nM
//
molecule: CC1CN(c2ccc(OC(F)(F)F)cc2)CCC1C(=O)NCCC1CCN(Cc2ccccc2)CC1 (stereo not drawn)
outcome_measure: Ki
endpoint_result: < 10 nM
//
molecule: Cc1c(C(=O)NCCC2CCN(Cc3ccccc3)CC2)cnc2cc(-c3cccs3)nn12
outcome_measure: Ki
endpoint_result: 100 to 1000 nM

Observed Ki, human M4 receptor (Homo sapiens (Human), UniProt P08173), C[C@@H]1CN(c2ncccn2)CCN1C(=O)NCCC1CCN(Cc2ccccc2)CC1 : 100 to 1000 nM

* * *

# experimental_target: human M5 receptor (Homo sapiens (Human), UniProt P08912)
# Sequence (P08912 whole entry): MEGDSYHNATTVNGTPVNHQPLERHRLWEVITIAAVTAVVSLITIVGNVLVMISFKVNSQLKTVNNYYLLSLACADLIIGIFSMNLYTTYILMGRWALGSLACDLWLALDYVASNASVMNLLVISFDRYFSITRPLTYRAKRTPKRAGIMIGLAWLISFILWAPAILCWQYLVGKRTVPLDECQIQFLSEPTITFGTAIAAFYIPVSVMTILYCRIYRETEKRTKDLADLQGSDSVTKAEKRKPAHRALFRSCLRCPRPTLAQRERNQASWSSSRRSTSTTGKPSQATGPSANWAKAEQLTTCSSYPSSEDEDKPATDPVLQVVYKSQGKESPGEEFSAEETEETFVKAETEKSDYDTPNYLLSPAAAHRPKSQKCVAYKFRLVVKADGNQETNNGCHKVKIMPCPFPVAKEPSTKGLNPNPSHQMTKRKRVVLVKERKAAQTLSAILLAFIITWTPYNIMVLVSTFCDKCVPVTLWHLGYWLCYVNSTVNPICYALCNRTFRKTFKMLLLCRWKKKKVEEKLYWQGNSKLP
# protocol: Radioligand (tritiated N-methylscopolamine) binding assay, M5
# condition: CHO cell membranes expressing human M5; 1.5 nM tritiated N-methylscopolamine; 90 min, 37° C.; read-out: Ki against M5 receptor (Table 21, M5)
# Ki values compiled below

Sample answers from the record:
compound: O=C(NCCC1(O)CCN(Cc2ccccc2)CC1)C1CCN(c2ccc(OC(F)(F)F)c(F)c2)CC1
endpoint_result: > 1000 nM

compound: O=C(NCCC1CCN(Cc2ccccc2)CC1)N1CCN(c2ncc(C(F)(F)F)cn2)CC1
endpoint_result: > 1000 nM

compound: O=C(NCCC1CCN(Cc2ccccc2)CC1)N1CCN(c2cnc(C(F)(F)F)cn2)CC1
endpoint_result: > 1000 nM

compound: C[C@@H]1CN(c2ncc(C(F)(F)F)c(N)n2)CCN1C(=O)NCCC1CCN(Cc2ccccc2)CC1 [21-16]
endpoint_result: 100 to 1000 nM

compound: C[C@@H]1CN(c2ccc(OC(F)(F)F)cn2)CCN1C(=O)NCCC1CCN(Cc2ccccc2)CC1
endpoint_result: > 1000 nM

Short answer for C[C@@H]1CN(c2cnc(C(F)(F)F)cn2)C[C@H](C)N1C(=O)NCCC1CCN(Cc2ccccc2)CC1 : Ki was 100 to 1000 nM

Short answer for O=C(NCCC1CCN(Cc2ccccc2)CC1)C1CCN(c2ccc(OC(F)(F)F)cc2)CC1 : Ki was > 1000 nM

Short answer for C[C@@H]1CN(c2ncc(C#N)cn2)C[C@H](C)N1C(=O)NCCC1CCN(Cc2cccc(F)c2)CC1 : Ki was > 1000 nM
